This section presents compounds with their documented response values.
Assay: cytosolic pH regulators acting via V-ATPase – S. cerevisiae, pHLuorin, HTS validation (AID 504600);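 note: plate controls were DMSO for no effect and reference compound for full effect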
Settings: V-ATPase proton transport, at 10 µM, stronger effect = higher value
Report as a plain number; the unit % is understood.

| COMPOUND | MEAS VALUE |
| --- | --- |
| O=C(/C=C/c1ccc(F)cc1)N1CC[C@@]2(O)CCCC[C@H]2C1 | 10.1 |
| O=c1c(C(c2ccccc2)c2c(O)sc3ccccc3c2=O)c(O)sc2ccccc12 | 0.43 |
| O=C(NC(=S)Nc1ccc(N2CCN(C(=O)c3ccccc3)CC2)cc1)c1cccs1 | 1.01 |
| COc1c(O)ccc2c1CN1CCc3cc4c(cc3C1C2)OCO4 (stereo unspecified) | -1.39 |
| Cc1ccc2occ(C(=O)c3ccco3)c(=O)c2c1 | 0.29 |

// `CN1C(C(=O)Nc2ccccn2)=C(O)c2sccc2S1(=O)=O` : response value = 4.48

// COc1ccc(/C=C/C(=O)NC(=S)NN2CCCCC2c2cccnc2)cc1 (stereo unspecified) : response value = 0.36

// `O=C(Cc1ccccc1[N+](=O)[O-])NCCCN1CCOCC1` : response value = 0.45

// `CCN(CCCCCN(C)C)Cc1cc2ccccc2o1` : response value = 0.31

// COc1ccc(CN2CCCCC2C(=O)Nc2ccc(OC)c(OCC(C)C)c2)cc1OC (stereo unspecified) : response value = -0.65

// CC1(C)C(=O)OC(/C=C\c2ccccc2)C(C)(C)C1=O (stereo unspecified) : response value = -6.88

* * *

System: anti-desmoglein-3 scFv antibody binding to human DSG3
Experiment: blockers of pathogenic pemphigus antibody–desmoglein-3 binding – biochemical, validation compound set, bead-based, flow cytometry, pilot screen (AID 588368);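 note: signal is the median channel fluorescence of bead-bound GFP antibody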
Conditions: Protein G beads, DSG3-Fc, scFv-GFP binding, at 10 µM, stronger effect = lower value
READOUT KIND: binding (% of control) (%)
Report as a plain number; the unit % is understood.

binding (% of control) of CC(=O)C1=C(O)C(=O)OC1c1ccc(C)cc1 (configuration not stated) , assay on anti-desmoglein-3 scFv antibody binding to human DSG3, is 101

binding (% of control) of `CCOC(=O)C(=O)N1CCN(c2ccccc2OC)CC1` , assay on anti-desmoglein-3 scFv antibody binding to human DSG3, is 102

binding (% of control) of `Cn1c(=O)c(C(=O)NCCO)c(O)c2ccccc21` , assay on anti-desmoglein-3 scFv antibody binding to human DSG3, is 103

binding (% of control) of `NC(=O)c1cnccn1` , assay on anti-desmoglein-3 scFv antibody binding to human DSG3, is 102

binding (% of control) of `Cc1cccc(C(=O)c2cccc(C)c2)c1` , assay on anti-desmoglein-3 scFv antibody binding to human DSG3, is 98.7

binding (% of control) of `OCCN(Cc1nc(-c2ccc3c(c2)OCO3)no1)Cc1cccs1` , assay on anti-desmoglein-3 scFv antibody binding to human DSG3, is 109

binding (% of control) of OC(CCCN1CCC(O)(c2ccc(Cl)cc2)CC1)c1ccc(F)cc1 (configuration not stated) , assay on anti-desmoglein-3 scFv antibody binding to human DSG3, is 104

binding (% of control) of C=CCC1(Cl)C(=O)C(Cl)=C(N2CCOCC2)C1(OC)OC (configuration not stated) , assay on anti-desmoglein-3 scFv antibody binding to human DSG3, is 98.9

binding (% of control) of `CCc1ccc2oc(=O)cc(CN3CCC(C)CC3)c2c1` , assay on anti-desmoglein-3 scFv antibody binding to human DSG3, is 103

binding (% of control) of CCc1cc2c(=O)c(-c3nc(C)cs3)coc2cc1OC(C)C(=O)NCCO (configuration not stated) , assay on anti-desmoglein-3 scFv antibody binding to human DSG3, is 101

binding (% of control) of `COc1ccc(C(=O)CCN2CCc3cc(OC)c(OC)cc3C2)cc1` , assay on anti-desmoglein-3 scFv antibody binding to human DSG3, is 96.7

binding (% of control) of `COc1cc(/C=C/C(=O)O)cc(S(=O)(=O)NCCCO)c1OC` , assay on anti-desmoglein-3 scFv antibody binding to human DSG3, is 96.6

From: PubChem BioAssay
